Tested on: SF-268
Assay Name: NCI tumour cell line growth inhibition, 48 h
Activity calls are given as the source filed them. No stated cut-off is given here; in the data, active = GI50 up to about 1.1 µM and inactive = higher.
Outcomes: 1 = active, 0 = inactive

- Compound: "Cn1c(=S)[nH]c2sc3c(c2c1=O)CCSC3"
  Answer Label: 0
- Compound: "Oc1c(/N=N/c2ccccc2)c2ccccc2c2ccc3ccccc3c12"
  Answer Label: 0
- Compound: "C(=C\\c1ccccc1)/COc1ccccc1C(N1CCOCC1)n1nc2ccccc2n1 (configuration not stated)"
  Answer Label: 0
- Compound: "COc1ccc(/C=C2\\CCC(CN(C)C)C2=O)cc1 (configuration not stated)"
  Answer Label: 0
- Compound: "O=C(/C=C/C1C(=O)NC(=O)NC1=O)CC(=O)C(=O)Nc1cc(Cl)c(Cl)cc1Cl"
  Answer Label: 0
- Compound: "CC1(C)CN=C(Nc2cccc(C(F)(F)F)c2)S1"
  Answer Label: 0
- Compound: "C=CC1=CSNN1"
  Answer Label: 0
- Compound: "COc1ccc2oc(=N)c(C(N)=O)cc2c1"
  Answer Label: 0
- Compound: "CC(C)=c1sc(=C(C)C)c2c1=NC(C)(C)N=2"
  Answer Label: 0
- Compound: "CCOC(=O)C1=C(C)N(NC(=O)OC)C2(N)N(NC(=O)OC)C(C)=C(C(=O)OCC)C12C#N (configuration not stated)"
  Answer Label: 0
- Compound: "C[Si](C)(C)CNC(=O)OCc1ccccc1"
  Answer Label: 0
- Compound: "N#C/C(N)=C(C#N)/N=C/N"
  Answer Label: 0
- Compound: "CC1(CCC(=O)OC2CCCCC2)OCCO1"
  Answer Label: 0
- Compound: "O=C(CCC(NC(=O)OCc1ccccc1)C(=O)OCc1ccccc1)Nc1ccc(OCc2ccccc2)cc1 (configuration not stated)"
  Answer Label: 0
- Compound: "O=C(CN1CCOCC1)Nc1ccc2c(c1)C1Oc3ccccc3CC1CO2 (configuration not stated)"
  Answer Label: 0
- Compound: "O=C(N/N=C/C=C/c1ccccc1)c1ccccc1Nc1ccccc1C(=O)N/N=C/C=C/c1ccccc1"
  Answer Label: 0
- Compound: "COC1=C(OC)C(=O)C(C/C=C/c2c(Cl)nc3sccn23)=C(C)C1=O"
  Answer Label: 0
- Compound: "O=C(O)CNS(=O)(=O)c1ccc(NC(=O)c2ccc([N+](=O)[O-])cc2)cc1"
  Answer Label: 0
- Compound: "COc1cc(NS(C)(=O)=O)ccc1N1Cc2c[nH]c3ccc4nccc1c4c23"
  Answer Label: 0
- Compound: "COC(=O)C1=Cc2cn(S(=O)(=O)c3ccc(C)cc3)c3cccc(c23)C(C=C(C)C)N1C(C)=O (configuration not stated)"
  Answer Label: 0
- Compound: "C/C1=C\\[C@H](C)C[C@H](C)OC(=O)C[C@H](c2ccc(O)cc2)NC(=O)[C@@H](Cc2c(Br)[nH]c3ccccc23)N(C)C(=O)[C@H](C)NC(=O)[C@@H](C)C1 [JASPAMIDE]"
  Answer Label: 1
- Compound: "COC(=O)C1CC(C=O)=C(SC)N1 (configuration not stated)"
  Answer Label: 0
